test system: Acinetobacter baumannii PEG 10-57-24; assay: MHK against further strains (Table 2); format: cell-based; details: Nr. 24 Acinetobacter baumannii PEG 10-57-24, clinical isolate
endpoint.name: MHK (mg/L)
Record the value in mg/L, omitting the unit from your answer.

A selection of reference data follows.
Query string: Dear colleague, please send me the reported MHK for COc1c(NC(=O)c2ccc(NC(=O)c3ccc(NC(=O)[C@@H](CN(C)C)NC(=O)c4ccc(NC(=O)/C(C)=C/c5ccc(O)cc5)cc4)cc3)c(OC)c2O)ccc(C(=O)O)c1O when you can.
Result string: 32

Query string: Provide measured MHK value, entry: COc1c(NC(=O)c2ccc(NC(=O)c3ccc(NC(=O)[C@H](Cc4c[nH]cn4)NC(=O)c4ccc(NC(=O)/C(C)=C/c5ccc(O)cc5)cc4)cc3)c(OC)c2O)ccc(C(=O)O)c1O
Result string: 2

Query string: Supply reported MHK belonging to this molecule: COc1c(NC(=O)c2ccc(NC(=O)c3ccc(NC(=O)[C@H](CN(C)C)NC(=O)c4ccc(NC(=O)/C(C)=C/c5ccc(O)cc5)cc4)cc3)c(OC)c2O)ccc(C(=O)O)c1O
Result string: 32

Next molecule, MHK to be filled in.
Query string: Give a short answer stating reported MHK for COc1c(NC(=O)c2ccc(NC(=O)c3ccc(NC(=O)C(Cc4c[nH]nn4)NC(=O)c4ccc(NC(=O)/C(C)=C/c5ccc(O)cc5)cc4)cc3)c(OC)c2O)ccc(C(=O)O)c1O (stereo not shown) .
Result string: 1

Source listed as patent US11225465B2.
